target: HRgpA-6H (Porphyromonas gingivalis) (UniProt P28784); test: SPR Biacore 8K; table lists HRgpA-6H as ligand, antibody as analyte
Measured Metric: kon (M⁻¹ s⁻¹)
Answer with a number only, understood to be in M⁻¹ s⁻¹.

Record H5 K222A (antibody, V domains shown) VH: QVQLQESGPGLVKPSETLSLTCTVSGFSLSIYSVHWIRQPPGKGLEWIGMIWGGGSSDYNSALKSRLTISKDTSKNQVSLKLSSVTAADTAVYYCARNGNFYAMDYWGQGTLVTVSS VL: EIVLTQSPGTLSLSPGERATLSCTASSSVSSSFLHWYQQKPGQAPRLLIYSTSNLASGIPDRFSGSGSGTDFTLTISRLEPEDFAVYYCHQYHHSPYIYTFGGGTKLEIK . Reported kon: 50200
